- target_under_test: hOR51E1 (Homo sapiens, UniProt Q8TCB6)
- Sequence (Q8TCB6 whole entry): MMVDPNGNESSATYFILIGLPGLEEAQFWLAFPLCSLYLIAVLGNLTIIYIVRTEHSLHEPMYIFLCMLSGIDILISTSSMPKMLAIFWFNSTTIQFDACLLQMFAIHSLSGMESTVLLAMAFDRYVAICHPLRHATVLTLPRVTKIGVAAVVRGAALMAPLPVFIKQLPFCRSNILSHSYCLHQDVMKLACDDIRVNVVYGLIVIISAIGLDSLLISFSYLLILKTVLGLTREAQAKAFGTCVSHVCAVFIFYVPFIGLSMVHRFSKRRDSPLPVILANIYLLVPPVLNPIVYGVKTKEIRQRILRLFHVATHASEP
- test_name: Cre-luciferase reporter gene assay, concentration-response curve of nonanoic acid on hOR51E1 (Dual-Glo Luciferase, transfected HANA3A cells)
- measurement_setup: agonist alone; human olfactory receptor hOR51E1 recombinantly expressed in HANA3A cells with RTP1S, G-protein αolf, M3 muscarinic acetylcholine receptor, pGL4-luciferase and pRL-TK-Renilla reporters; 4 h at 37° C.; Hill fit; n=3 in duplicate; FIG. 4B left
observable: EC50 (µM)
Report the figure in µM without appending any unit label.

Task: Entry CCCCCCCCC(=O)O needs its EC50 filled in; supply it.
Result: 103

====

- target_under_test: MOR42-3 (Mus musculus)
- Construct: CRE-luciferase readout normalized to Renilla
- Sequence (E9PX47 1-334): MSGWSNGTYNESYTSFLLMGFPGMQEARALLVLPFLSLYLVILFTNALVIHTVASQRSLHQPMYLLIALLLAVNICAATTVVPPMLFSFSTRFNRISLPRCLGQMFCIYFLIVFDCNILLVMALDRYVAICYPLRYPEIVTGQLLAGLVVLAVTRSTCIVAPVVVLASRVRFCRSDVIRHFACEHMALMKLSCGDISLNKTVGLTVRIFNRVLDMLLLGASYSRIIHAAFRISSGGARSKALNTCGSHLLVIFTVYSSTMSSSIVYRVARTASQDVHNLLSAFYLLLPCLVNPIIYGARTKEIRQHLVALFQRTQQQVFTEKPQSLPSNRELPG
- test_name: Cre-luciferase reporter gene assay, concentration-response curve of azelaic acid on MOR42-3 (Dual-Glo Luciferase, transfected HANA3A cells)
- measurement_setup: agonist alone; murine olfactory receptor MOR42-3 recombinantly expressed in HANA3A cells with RTP1S, G-protein αolf, pGL4-luciferase and pRL-TK-Renilla reporters; 4 h at 37° C.; Hill fit; n=3 in duplicate; FIG. 4A left
observable: pEC50
Notebook: values listed as pEC50 are -log10 of the concentration (mol/L).

Task: Entry O=C(O)CCCCCCCC(=O)O needs its pEC50 filled in; supply it.
Result: 5.57

====

- target_under_test: hTAAR5 (Homo sapiens, UniProt O14804)
- Construct: expressed in transfected cells; host or cells: HANA3A cells
- Sequence (O14804 whole entry): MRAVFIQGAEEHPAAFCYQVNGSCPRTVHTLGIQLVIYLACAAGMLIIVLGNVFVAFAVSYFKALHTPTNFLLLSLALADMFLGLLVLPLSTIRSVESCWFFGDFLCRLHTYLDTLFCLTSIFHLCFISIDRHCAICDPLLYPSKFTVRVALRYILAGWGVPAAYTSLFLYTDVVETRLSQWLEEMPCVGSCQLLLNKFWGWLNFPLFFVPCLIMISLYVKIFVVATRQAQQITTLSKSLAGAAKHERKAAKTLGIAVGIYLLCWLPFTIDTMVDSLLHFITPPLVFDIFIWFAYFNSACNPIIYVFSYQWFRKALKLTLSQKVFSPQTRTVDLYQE
- test_name: Cre-luciferase reporter gene assay, hTAAR5-mediated responses to TMA in transfected HANA3A cells
- Assay type: cell-based
- measurement_setup: TMA 100 μM; read-out: half maximal inhibitory concentration (IC50)
observable: pIC50
Notebook: values listed as pIC50 are -log10 of the concentration (mol/L).

Task: Entry CCCC(O)CCC1C(C)CCCC1(C)C (stereo not shown) [Timberol®, Norlimbanol] needs its pIC50 filled in; supply it.
Result: 4.56

====

- target_under_test: hTAAR5 (Homo sapiens)
- Construct: expressed in transfected cells; host or cells: HANA3A cells
- test_name: Cre-luciferase reporter gene assay, hTAAR5-mediated responses to TMA in transfected HANA3A cells
- Type: cell-based
- measurement_setup: TMA 30 μM; read-out: half maximal inhibitory concentration (IC50)
observable: pIC50
Notebook: values listed as pIC50 are -log10 of the concentration (mol/L).

Task: Entry CCCC(O)CCC1C(C)CCCC1(C)C (stereo not shown) needs its pIC50 filled in; supply it.
Result: 4.78
